Listed next: entries and their corresponding GI50.
methodSummary: Growth inhibition of human PANC1 cells by MTT assay
Assay type: functional
particulars: PANC-1
Give just the number in µM; leave the unit off.

# smilesData, obsValue
measured = [
    ("CO[C@H]1C(=O)[C@]2(C)[C@@H](OC)C[C@H]3OC[C@@]3(OC(C)=O)[C@H]2[C@H](OC(=O)c2ccccc2)[C@]2(O)C[C@H](OC(=O)[C@H](O)[C@@H](NC(=O)OC(C)(C)C)c3ccccc3)C(C)=C1C2(C)C", 0.00128),
    ("COCCO[C@H]1C(=O)[C@]2(C)[C@@H](OCCOC)C[C@H]3OC[C@@]3(OC(C)=O)[C@H]2[C@H](OC(=O)c2ccccc2)[C@]2(O)C[C@H](OC(=O)[C@H](O)[C@@H](NC(=O)OC(C)(C)C)c3ccccc3)C(C)=C1C2(C)C", 0.295),
]

What GI50 value was documented for this compound, `CC(=O)O[C@@]12CO[C@@H]1C[C@H](OC(=O)C(C)(CO)CO)[C@@]1(C)C(=O)[C@H](OC(=O)C(C)(CO)CO)C3=C(C)[C@@H](OC(=O)[C@H](O)[C@@H](NC(=O)OC(C)(C)C)c4ccccc4)C[C@@](O)([C@@H](OC(=O)c4ccccc4)[C@H]21)C3(C)C` ?
0.171

Record request: GI50 value, item `CCOCCO[C@H]1C(=O)[C@]2(C)[C@@H](OCCOCC)C[C@H]3OC[C@@]3(OC(C)=O)[C@H]2[C@H](OC(=O)c2ccccc2)[C@]2(O)C[C@H](OC(=O)[C@H](O)[C@@H](NC(=O)OC(C)(C)C)c3ccccc3)C(C)=C1C2(C)C`
0.15

---

System: A-431
methodSummary: Growth inhibition of human A431 cells by MTT assay
Format: functional
attributeMeasured: log10 of GI50 (log10 of the value in nM)
// units: nM (pre-log); metric: GI50; scale: log10

Field: example entries. Status: answers known.
# smilesData, targetUnderTest, log10 of GI50
data = [
    ("CCOCCO[C@H]1C(=O)[C@]2(C)[C@@H](OCCOCC)C[C@H]3OC[C@@]3(OC(C)=O)[C@H]2[C@H](OC(=O)c2ccccc2)[C@]2(O)C[C@H](OC(=O)[C@H](O)[C@@H](NC(=O)OC(C)(C)C)c3ccccc3)C(C)=C1C2(C)C", "A-431", 0.36),
    ("COCCO[C@H]1C(=O)[C@]2(C)[C@@H](OCCOC)C[C@H]3OC[C@@]3(OC(C)=O)[C@H]2[C@H](OC(=O)c2ccccc2)[C@]2(O)C[C@H](OC(=O)[C@H](O)[C@@H](NC(=O)OC(C)(C)C)c3ccccc3)C(C)=C1C2(C)C", "A-431", 0.83),
    ("COCO[C@H]1C(=O)[C@]2(C)[C@@H](OCOC)C[C@H]3OC[C@@]3(OC(C)=O)[C@H]2[C@H](OC(=O)c2ccccc2)[C@]2(O)C[C@H](OC(=O)[C@H](O)[C@@H](NC(=O)OC(C)(C)C)c3ccccc3)C(C)=C1C2(C)C", "A-431", 2.44),
    ("CO[C@H]1C(=O)[C@]2(C)[C@@H](OC)C[C@H]3OC[C@@]3(OC(C)=O)[C@H]2[C@H](OC(=O)c2ccccc2)[C@]2(O)C[C@H](OC(=O)[C@H](O)[C@@H](NC(=O)OC(C)(C)C)c3ccccc3)C(C)=C1C2(C)C", "A-431", 0.17),
    ("CC(=O)O[C@H]1C(=O)[C@@]2(C)[C@H]([C@H](OC(=O)c3ccccc3)[C@]3(O)C[C@H](OC(=O)[C@H](O)[C@@H](NC(=O)c4ccccc4)c4ccccc4)C(C)=C1C3(C)C)[C@]1(OC(C)=O)CO[C@@H]1C[C@@H]2O", "A-431", 0.37),
]

Param readout= log10 of GI50; system= A-431; entry= `CC(=O)O[C@@]12CO[C@@H]1C[C@H](OCCO)[C@@]1(C)C(=O)[C@H](OCCO)C3=C(C)[C@@H](OC(=O)[C@H](O)[C@@H](NC(=O)OC(C)(C)C)c4ccccc4)C[C@@](O)([C@@H](OC(=O)c4ccccc4)[C@H]21)C3(C)C` ; returns value.
1.59

State its log10 of GI50 on A-431: `CC(=O)O[C@@]12CO[C@@H]1C[C@H](OC(=O)C(C)(CO)CO)[C@@]1(C)C(=O)[C@H](OC(=O)C(C)(CO)CO)C3=C(C)[C@@H](OC(=O)[C@H](O)[C@@H](NC(=O)OC(C)(C)C)c4ccccc4)C[C@@](O)([C@@H](OC(=O)c4ccccc4)[C@H]21)C3(C)C`
0.10

Origin of the recorded values: ChEMBL document CHEMBL3112430
